Documented phytotoxicity rating DIGSA across a set of compounds
Tested on: large crabgrass (Digitaria sanguinalis, DIGSA)
Assay text: Pre-emerge test, greenhouse herbicide activity screening
Type: in vivo
Condition context: pre-emerge, 63 g ai/ha, 14 days after application, rating scale 0-100
Quick one: just the number, no unit, thanks!

Compound	phytotoxicity rating DIGSA
COc1c(Cl)cc(F)c(-n2c(=O)cc(C(F)(F)F)n(C)c2=O)c1NN=C(C)C	100
CCOC(=O)C(Cl)Cc1c(OC)c(Cl)cc(F)c1-c1nn(C)c(C(F)(F)F)c1Cl (centres unmarked)	30
CCOC(=O)C(Cl)Cc1c(C)c(Cl)cc(F)c1-n1c(=O)cc(C(F)(F)F)n(C)c1=O (centres unmarked)	0
CCCOC(=O)C(Cl)Cc1c(OCC)c(Cl)cc(F)c1-n1c(=O)cc(C(F)(F)F)n(C)c1=O (centres unmarked)	90
Cn1c(C(F)(F)F)cc(=O)n(-c2ccc(Cl)cc2C(=O)c2ccccc2)c1=O	0
COc1c(Cl)cc(F)c(-n2c(=O)cc(C(F)(F)F)n(C)c2=O)c1SCCO	0
CCOC(=O)C(Cl)Cc1c(OC)c(Cl)cc(F)c1-n1nc(C(F)(F)F)n(C)c1=O (centres unmarked)	0

-- ask What phytotoxicity rating DIGSA value was documented for this compound, COc1c(Cl)cc(F)c(-n2c(=O)cc(C(F)(F)F)n(C)c2=O)c1SC(C)C ?
-- reply 0

###

Test system: field corn (Zea mays L., var. Dekalb 535, CORN)
Assay text: Post-emerge test, crop safety
Format: in vivo
Condition context: Rate 250 g ai/ha; rating scale 0-100 (0 no damage, 100 complete death); 14 days after application
Experimental: A standard greenhouse herbicide activity screening system was used to evaluate the herbicidal efficacy and crop safety of these test compounds. […] At 14 days after application of the test materials, phytotoxicity ratings were recorded. […]
Attribute measured: Post-emerge phytotoxicity rating CORN (crop damage)
Write no unit; give the number alone.

A selection of reference data follows.
Compound	Numeric readout
COc1c(Cl)cc(F)c(-n2c(=O)cc(C(F)(F)F)n(C)c2=O)c1CC(Cl)C(=O)OCC(F)(F)F (stereo not drawn)	100
COCCOC(=O)C(C)(Cl)Cc1c(OC)c(Cl)cc(F)c1-n1c(=O)cc(C(F)(F)F)n(C)c1=O (stereo not drawn)	100
COc1c(Cl)cc(F)c(-n2c(=O)cc(C(F)(F)F)n(C)c2=O)c1CC(Cl)C(=O)OCC(F)(F)C(F)(F)C(F)(F)F (single isomer, unassigned) [14-24]	20
COc1c(Cl)cc(F)c(-n2c(=O)cc(C(F)(F)F)n(C)c2=O)c1CC(Cl)C(=O)OCC(C)C (single isomer, unassigned) [14-15]	60
COc1c(Cl)cc(F)c(-n2c(=O)cc(C(F)(F)F)n(C)c2=O)c1CC(Cl)C(=O)OCC(Br)CBr (single isomer, unassigned) [14-31]	50

-- ask Recall the recorded Post-emerge phytotoxicity rating CORN (crop damage) for COc1c(Cl)cc(F)c(-n2c(=O)cc(C(F)(F)F)n(C)c2=O)c1CC(Cl)C(=O)OCC(F)(F)C(F)(F)C(F)(F)F (single isomer, unassigned) [14-23] with field corn (Zea mays L., var. Dekalb 535, CORN) and state it.
-- reply 40

###

System: ivyleaf morningglory (Ipomoea hederacea, IPOHE)
Assay text: Pre-emerge test, greenhouse herbicide activity screening
Format: in vivo
Condition context: pre-emerge, rate 250 g ai/ha, phytotoxicity rating 0-100 at 14 days after application
Attribute measured: Pre-emerge Herbicidal Activity IPOHE

Please review the entries below; each comes with its answer.
Compound	Pre-emerge Herbicidal Activity IPOHE
COc1c(Cl)cc(F)c(-n2nnn(CCCF)c2=O)c1N [Compound 5-3]	10
CCC(=O)Nc1c(Cl)cc(Cl)c(-n2nc(C)n(C(F)F)c2=O)c1N [Compound 6-19]	0
C#CCOc1c(Cl)cc(Cl)c(-n2nnn(CCCF)c2=O)c1N [Compound 5-15]	0
Cc1c(Cl)cc(F)c(-n2c(=O)cc(C(F)(F)F)n(C)c2=O)c1NC(=O)OCc1ccc(Cl)cc1Cl [4-62]	30
COc1c(Cl)cc(F)c(-n2nnn(CCCF)c2=O)c1NC(=O)c1ccc2ccccc2c1 [Compound 5-26]	40
COc1ccc(COC(=O)Nc2c(C)c(Cl)cc(F)c2-n2c(=O)cc(C(F)(F)F)n(C)c2=O)cc1OC [4-63]	100

-- ask Would you kindly share the measured Pre-emerge Herbicidal Activity IPOHE for C#CCOc1c(Cl)cc(F)c(N2C(=O)C3=C(CCCC3)C2=O)c1N [Compound 8-3] ?
-- reply 10

-- ask Could you tell me which Pre-emerge Herbicidal Activity IPOHE is on file for Cc1ccccc1COC(=O)Nc1c(C)c(Cl)cc(F)c1-n1c(=O)cc(C(F)(F)F)n(C)c1=O [4-56] ?
-- reply 100

-- ask Entry Cc1cccc(C)c1OC(=O)Nc1c(C)c(Cl)cc(F)c1-n1c(=O)cc(C(F)(F)F)n(C)c1=O [4-55] has what Pre-emerge Herbicidal Activity IPOHE?
-- reply 70

-- ask Please give the measured Pre-emerge Herbicidal Activity IPOHE for this compound: Cc1c(Cl)cc(F)c(-n2c(=O)cc(C(F)(F)F)n(C)c2=O)c1NC(=O)OCc1cccc([N+](=O)[O-])c1 [4-67]
-- reply 90

-- ask Which measured Pre-emerge Herbicidal Activity IPOHE value corresponds to Cc1ccc(COC(=O)Nc2c(C)c(Cl)cc(F)c2-n2c(=O)cc(C(F)(F)F)n(C)c2=O)cc1 [4-60] ?
-- reply 100

-- ask Can you share its Pre-emerge Herbicidal Activity IPOHE? I mean this compound: COc1c(Cl)cc(F)c(-n2ncc(C(F)(F)F)c(C)c2=O)c1NC(=O)c1ccc2ccccc2c1 [11-13]
-- reply 80

###

Test system: lambsquarters (Chenopodium album, CHEAL)
Assay text: Post-emerge test, greenhouse herbicide activity screening
Format: in vivo
Condition context: post-emerge, 63 g ai/ha, 14 days after application, rating scale 0-100
Attribute measured: phytotoxicity rating CHEAL
Enter the number alone.

Smi	phytotoxicity rating CHEAL
COc1c(Cl)cc(F)c(-n2c(=O)cc(C(F)(F)F)n(C)c2=O)c1NC(=O)OCc1ccc(C(F)(F)F)cc1	80
COc1c(Cl)cc(F)c(-n2c(=O)cc(C(F)(F)F)n(C)c2=O)c1NC(=O)c1ccc2ccccc2c1	100
COc1c(Cl)cc(F)c(-n2c(=O)cc(C(F)(F)F)n(C)c2=O)c1N(C(=O)COc1ccccc1)C(=O)COc1ccccc1	80

-- ask What does the data say about its phytotoxicity rating CHEAL? Entry: COc1c(Cl)cc(F)c(-n2c(=O)cc(C(F)(F)F)n(C)c2=O)c1NC(=O)CC#N
-- reply 80

-- ask Look at this molecule and give its reported phytotoxicity rating CHEAL. Cn1c(C(F)(F)F)cc(=O)n(-c2ccc(Cl)cc2NC(=O)C2CC2)c1=O
-- reply 20

-- ask Any idea what phytotoxicity rating CHEAL was measured for COc1c(Cl)cc(F)c(-n2c(=O)cc(C(F)(F)F)n(C)c2=O)c1NC(=O)NCc1ccccc1 ?
-- reply 50

-- ask Consider the molecule COc1c(Cl)cc(F)c(-n2c(=O)cc(C(F)(F)F)n(C)c2=O)c1NC(=O)c1ccc(C(F)(F)F)cc1 and give its measured phytotoxicity rating CHEAL.
-- reply 80

-- ask Can you look up the measured phytotoxicity rating CHEAL of COc1c(Cl)cc(F)c(-n2c(=O)cc(C(F)(F)F)n(C)c2=O)c1NC(=O)c1ccc(I)cc1 for me?
-- reply 100

-- ask Given the entry Cc1c(Cl)cc(F)c(-n2c(=O)cc(C(F)(F)F)n(C)c2=O)c1NC(=O)OCc1ccccc1Cl , report its measured phytotoxicity rating CHEAL.
-- reply 100

-- ask Tell me the measured phytotoxicity rating CHEAL of COc1c(Cl)cc(F)c(-n2c(=O)cc(C(F)(F)F)n(C)c2=O)c1NC(=O)c1ccc(Cl)cc1 , please.
-- reply 100

-- ask If you can, please state the reported phytotoxicity rating CHEAL value of COc1c(Cl)cc(F)c(-n2c(=O)cc(C(F)(F)F)n(C)c2=O)c1NC(=O)C(=O)c1ccccc1 .
-- reply 60

-- ask I would be grateful if you could share the reported phytotoxicity rating CHEAL for COc1c(Cl)cc(F)c(-n2c(=O)cc(C(F)(F)F)n(C)c2=O)c1NC(=O)c1ccc(Br)cc1 .
-- reply 100

-- ask Item COC(=O)Nc1c(OC)c(Cl)cc(F)c1-n1c(=O)cc(C(F)(F)F)n(C)c1=O has what recorded phytotoxicity rating CHEAL?
-- reply 60

-- ask Entry under review: COc1c(Cl)cc(F)c(-n2c(=O)cc(C(F)(F)F)n(C)c2=O)c1NC(=O)c1ccc(OC(F)(F)F)cc1 . Reported phytotoxicity rating CHEAL?
-- reply 70

-- ask Look up phytotoxicity rating CHEAL: Cn1c(C(F)(F)F)cc(=O)n(-c2ccc(Cl)cc2NC(=O)OCc2ccccc2F)c1=O
-- reply 100

-- ask GET /values?readout=phytotoxicity rating CHEAL&item= Cc1c(Cl)cc(F)c(-n2c(=O)cc(C(F)(F)F)n(C)c2=O)c1NC(=O)OCCc1ccccc1
-- reply 95

-- ask Any idea what its phytotoxicity rating CHEAL is? The molecule is COc1c(Cl)cc(F)c(-n2c(=O)cc(C(F)(F)F)n(C)c2=O)c1NC(=O)OCc1ccc(F)cc1
-- reply 100

-- ask What value of phytotoxicity rating CHEAL has been recorded for this entry: COc1c(Cl)cc(F)c(-n2c(=O)cc(C(F)(F)F)n(C)c2=O)c1NC(=O)c1cc([N+](=O)[O-])cc([N+](=O)[O-])c1
-- reply 50

-- ask Quick one: phytotoxicity rating CHEAL for COc1c(Cl)cc(F)c(-n2c(=O)cc(C(F)(F)F)n(C)c2=O)c1NC(=O)OCc1cc(C)cc(C)c1 ?
-- reply 100

-- ask Which phytotoxicity rating CHEAL is reported for this molecule? COc1c(Cl)ccc(-n2c(=O)cc(C(F)(F)F)n(C)c2=O)c1NC(=O)c1ccc2ccccc2c1
-- reply 100

-- ask Please report the recorded phytotoxicity rating CHEAL for Cn1c(C(F)(F)F)cc(=O)n(-c2c(F)cc(Cl)c(OCC#N)c2NC(=O)OCc2ccccc2)c1=O .
-- reply 80

-- ask Report phytotoxicity rating CHEAL for COc1c(Cl)cc(F)c(-n2c(=O)cc(C(F)(F)F)n(C)c2=O)c1NC(=O)OCc1cc(F)ccc1F please.
-- reply 100

-- ask Name the recorded phytotoxicity rating CHEAL for COc1c(Cl)cc(F)c(-n2c(=O)cc(C(F)(F)F)n(C)c2=O)c1NC(=O)Oc1c(C)cc(C)cc1C .
-- reply 75

-- ask Recorded phytotoxicity rating CHEAL for COc1ccc(C(=O)Nc2c(OC)c(Cl)cc(F)c2-n2c(=O)cc(C(F)(F)F)n(C)c2=O)cc1 , please?
-- reply 99

Data provenance is patent US6355799B1.
